B1: PCMTD2 (parent)
chain: FFIRTSDSFDKFDFCEPSFVTGNC

Variants of: B1
Test: protein stability index of a GFP-peptide fusion (GPS, HEK-293T) (PSI 1-6); higher = more stable;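 also: lentivirally expressed fusions sorted by FACS into six bins by GFP to DsRed ratio, PSI derived from sequencing read proportions per bin multiplied by bin number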
Settings: c terminus: a fixed tail appended
Listing: protein stability index of selected variants
Reply with the value as a number alone.

Solved entries (count: 8):
FFIRTSDSFDKFDFCWPSFVTGNC [E16W]    3.77
FFIRISDSFDKFDFCEPSFVTGNC [T5I]    3.08
FFIRTSDSFDQFDFCEPSFVTGNC [K11Q]    3.58
FFIRTSDSFDKFDPCEPSFVTGNC [F14P]    2.55
FFIRTSDSFVKFDFCEPSFVTGNC [D10V]    3.82
FFIATSDSFDKFDFCEPSFVTGNC [R4A]    3.21
FFIRTSDSDDKFDFCEPSFVTGNC [F9D]    2.03
FFITTSDSFDKFDFCEPSFVTGNC [R4T]    3.27

Prompt: Which protein stability index value is on record for FFIRTSDSFDKFDFCEKSFVTGNC [P17K] ?
Completion: 2

Prompt: Could you share which protein stability index value was measured for FFGRTSDSFDKFDFCEPSFVTGNC [I3G] ?
Completion: 2.18

Prompt: Dear colleague, I am looking for the recorded protein stability index of the following variant: FFIRTSDSFDKFDFCECSFVTGNC [P17C]
Completion: 2.42

Prompt: If you can, please state the reported protein stability index value of FFIRTSDSFDKFDFKEPSFVTGNC [C15K] .
Completion: 2.43

Prompt: Give its protein stability index value. Item: FFIRTSDSFDKFDFCEPSFWTGNC [V20W]
Completion: 2.15

Prompt: Quick one: protein stability index for FFIRTSDSFDKFDFCAPSFVTGNC [E16A] ?
Completion: 2.25

Prompt: Look up protein stability index for this variant: FFIRTSDSFDKYDFCEPSFVTGNC [F12Y]
Completion: 2.79

Prompt: Can you share its protein stability index? I mean this variant: FFIRTSDSFDKFDFCEPSFVIGNC [T21I]
Completion: 2.9
